assay-system: FAST (Halorhodospira halophila, UniProt P16113, C69G/D97P/F96I/M100R/Q99S/T95M/Y94W/Y98T)
Construct: full-length FAST (engineered variant of PYP)
Sequence (P16113 whole entry C69G/Y94W/T95M/F96I/D97P/Y98T/Q99S/M100R): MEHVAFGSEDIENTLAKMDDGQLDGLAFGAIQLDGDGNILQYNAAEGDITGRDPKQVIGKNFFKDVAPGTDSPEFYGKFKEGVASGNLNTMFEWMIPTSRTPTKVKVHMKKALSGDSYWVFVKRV
method-notes: spectrofluorometric titration (Table S1)
Measured Kd values are reported for all entries that follow.
Please respond with the number in nM and leave the unit unwritten.

{"input-smiles": "COc1cc(/C=C2\\N=C(C)N(C)C2=O)c(OC)cc1O", "Kd [nM]": 710}

Proceeding to the next compound to report its Kd.
// Kd lookup, compound = COc1cc(/C=C2N=C(/C=C/c3ccncc3)N(C)C\2=O)c(OC)cc1O , result: 150
